meta.source: PubChem BioAssay (NCI)

Test system: SF-295 CNS
Experiment: NCI tumour cell line growth inhibition, 48 h
MEASURED_QUANTITY: TGI

>  <COMPOUND>
Cc1c(CNc2ccc(Cl)c(C(=O)NC(CC(=O)O)C(=O)O)c2)ccc2nc(N)nc(N)c12 (stereo unspecified)

>  <MEAS_VALUE>
> 1000 µM

$$$$
>  <COMPOUND>
FC(F)(F)c1ccc2nc(-c3nc(-c4ccccc4)n4ccccc34)[nH]c2c1

>  <MEAS_VALUE>
15.1 µM

$$$$
>  <COMPOUND>
COc1ccc2c(c1)OCC1(O)Cc3ccccc3OC21 (stereo unspecified)

>  <MEAS_VALUE>
> 100 µM

$$$$

Fill blank: measured TGI of the compound O=S(=O)(c1ccccc1)n1c(C(O)c2ccncc2)cc2ccccc21 (stereo unspecified) is ____.
> 100 µM

Recorded TGI of `Clc1ccc(Cl)c(N/N=C\c2c[nH]c3ccccc23)c1` , please.
70.4 µM

Return reported TGI; argument: COc1ccc(CN(O)C2C(CO)OC(n3cc(I)c(=O)[nH]c3=O)C2O)cc1 (stereo unspecified)
> 100 µM

----------
System: NCI-H23 lung
Experiment: NCI tumour cell line growth inhibition, 48 h
MEASURED_QUANTITY: GI50

>  <STRUCTURE_NOTATION>
Cc1nc2c(cnn2-c2ccnc3c(C(F)(F)F)cccc23)c(=O)o1

>  <MEAS_VALUE>
> 100000 nM

$$$$
>  <STRUCTURE_NOTATION>
Cc1ncc(C(=O)Nc2ccc(CN3CCN(C)CC3)c(C(F)(F)F)c2)cc1C#Cc1c(N)ncc2ccc(C#N)cc12

>  <MEAS_VALUE>
936 nM

$$$$
>  <STRUCTURE_NOTATION>
COc1ccc(C(=O)c2cc3c(N)c(C(=O)Nc4cccc(Cl)c4)sc3nc2C)cc1

>  <MEAS_VALUE>
2530 nM

$$$$
>  <STRUCTURE_NOTATION>
CCOC(=O)c1cc2c(n1Cc1cccc(OC)c1)-c1oncc1CC2

>  <MEAS_VALUE>
3420 nM

$$$$

Please turn your attention to the following entry.
Which GI50 value belongs to `CC(C)Oc1cc(OCC(=O)O)cc(C(=O)N(CCC(N)=O)C(=O)Nc2ccc(C(=O)O)cc2OC(C)C)c1` ?
> 100000 nM

----------
System: NCI-H460 lung
Reply using exactly one outcome from y = active, n = inactive

Illustrative cases are given below, each with its answer.
>  <STRUCTURE_NOTATION>
COc1ccc(C(=O)c2cc3c(N)c(C(=O)Nc4cccc(Cl)c4)sc3nc2C)cc1

>  <QUALITATIVE_LABEL>
n

$$$$
>  <STRUCTURE_NOTATION>
CCN(CC)CCCCCCCCNc1c2ccc(Cl)cc2nc2ccc(OC)cc12

>  <QUALITATIVE_LABEL>
n

$$$$
>  <STRUCTURE_NOTATION>
Clc1ccc(Cl)c(N/N=C\c2c[nH]c3ccccc23)c1

>  <QUALITATIVE_LABEL>
n

$$$$
>  <STRUCTURE_NOTATION>
Cc1cc2c(-c3nc4ccccc4[nH]3)c(O)c(O)cc2c(O)c1-c1c(C)cc2c(-c3nc4ccccc4[nH]3)c(O)c(O)cc2c1O

>  <QUALITATIVE_LABEL>
y

$$$$

Consider now this further compound.
Returns: the outcome recorded for `O=C(CCCCCCc1nc2ccc(Br)cc2[nH]1)NO` in this assay.
y
